Assay: Phase 1 Study ABI-1648-006, single oral dose pharmacokinetics
Settings: female, human, plasma, po, 5 mg, Elimination t1/2 Mean, females, single oral dose 5 mg
result.type: half-life
Write down the value, and be sure its unit follows.

Given the molecule `CO[C@H]1/C=C/O[C@@]2(C)Oc3c(C)c(O)c4c(=O)c(c5oc6cc(N7CCN(CC(C)C)CC7)cc(O)c6nc-5c4c3C2=O)NC(=O)/C(C)=C\C=C\[C@H](C)[C@H](O)[C@@H](C)[C@@H](O)[C@@H](C)[C@H](OC(C)=O)[C@@H]1C` , what is its reported half-life?
137 h

---

Assay: Phase 1 Study ABI-1648-006, multiple oral dose pharmacokinetics
Details: female, human, plasma, oral, 5 mg
result.type: AUC
Give me the value, and tack the unit on after it.

Fill blank: measured AUC of the molecule CO[C@H]1/C=C/O[C@@]2(C)Oc3c(C)c(O)c4c(=O)c(c5oc6cc(N7CCN(CC(C)C)CC7)cc(O)c6nc-5c4c3C2=O)NC(=O)/C(C)=C\C=C\[C@H](C)[C@H](O)[C@@H](C)[C@@H](O)[C@@H](C)[C@H](OC(C)=O)[C@@H]1C [rifalazil] is ____.
197 ng·h/mL
